assay: folding stability dG unfold from chymotrypsin proteolysis; higher = more stable

sequence-text	folding stability dG unfold
SFSISTETKVVPQDGRLLIEYEFTVPNAPPGDTAALTLSVSHPSGASTSTSQTADPAGTYTAKFVVDIPLTS [r1_161_JUSTAS]	0.471 kcal/mol
SAGGSAGGSAGSVIVTSTTSTLPNGTVVTNETVSDPSNPGVTTKKTSTTYPDGSVTTTESSAGGSAGGSAGG [r11_483_JUSTAS]	1.73 kcal/mol
SAGGSAGGSAGGEPDKVSIHINITEEFIEQIKNGKPIPPWARPAIKYAQKKGKKVEIVWSAGGSAGGSAGGS [r10_890_TrROS]	-0.532 kcal/mol
SMKLKPGQTAKIVEIKENYIYIEVNGKKYKISLEELKEKGYEIKIVNGKIVEIRPKPKKKLSEEELKKLKSA [r9_842_TrROS_Hall]	1.04 kcal/mol

* * *

experiment: folding stability dG unfold (combined trypsin and chymotrypsin); higher = more stable

sequence-text	folding stability dG unfold
SAYYKIRWNNGREIELKDMPIEDLEKYFPGGPVEIEPVPPVPVVRIESWEQANDLAEQNPPNHTIIVMDSAG [r14_445_TrROS]	-0.634 kcal/mol
SAGGSAGGSKEEIRKRIAERLRELIPDAKITSIEFDEKTKKITITVDSPEVREALEKLPGIKPSAGGSAGGS [r12_623_TrROS_Hall]	1.53 kcal/mol
SAGGSAGGSAGGMKIIKLEDDYYLIPFDSPEQLKAYTDIFEKLGLPVVVLPDGRLLVKGSAGGSAGGSAGGS [r10_1027_TrMRF]	2.49 kcal/mol
SAGGSAGGSMTVERNVTSEEEAEEWREEIEKELGVKVEEVIREETEEGDLRVKFVIEIPEDLKSAGGSAGGS [r12_577_JUSTAS]	0.0537 kcal/mol
SAHTWEIWFPPGLTPEEIQEKLKEEFPGYEIDVDVERDPEPGWYRIEVTMKDPQQRRRVQKKIREILQESAG [r14_443_TrROS]	2.4 kcal/mol
SAGDMIKIPFNFKDPNGAKPKELEVMISPDPGVITAMFKYKHNNEPKYYMISIPIDPGNGKIEIEIQPMSAG [r5_136_TrROS]	1.46 kcal/mol
SAGGSALADRIAELARELGFEPVEIRYDPETGEVYALVRKPGGLLLRMRVEVDDDELHIEIEPLTDSAGGSA [r15_561_TrMRF]	5.18 kcal/mol

* * *

experiment: folding stability dG unfold (combined trypsin and chymotrypsin); higher = more stable
Threshold rule: folding stability dG unfold greater than or equal to 1 kcal/mol is Yes; below that, No.

sequence-text	label-class
SAGGSAGGSAGPKWKQITIPMEPGQSVNEIADEIKDELGPGKRVHVSMHENGWMTIYVRKSAGGSAGGSAGG [r17_20_TrROS]	No
SAGGMKITLPPGAEITEVFELPDGQLLLRVRHKDTGKTEVVPASDLEIEIEPGEEVEVEIFRVPKEDLSAGG [r13_173_TrROS_Hall]	Yes
SAGGSAGGKAEKITLEIPNTGKKVEIIKPENKAIITVYDKNGKPIKTIVVPPNFPGIEDAVKADSAGGSAGG [r6_424_TrMRF]	No
SAIRGLPPEEIEKAVKKLAKEGNVEIEIKPFTMRVYPPDGGQQPYQYYQIEIYNPDNGKPIEDKIKKLFSAG [r14_628_TrROS]	No
SAVEIEFWFPGGMSVEEFVNEFSKILPGLRDVDIGVEPYPETDMWKVTATIRIVPPPSPEDQEEMQKNKSAG [r14_645_TrROS]	Yes
STRTLTVVVEAPTLEEALAAAKALAPPGWKVTVTVERREVVDPETGETRTVLVVTVTIEPAPPPPPAEEKSA [r9_962_TrROS_Hall]	Yes
SAGGSAGGSGMTVEERTSPDGTRVEVYLGPGSVVREESPEGVVTVRTLTDGRVEREEVVPVPASAGGSAGGS [r12_451_JUSTAS]	No
SAGGSAIPGMPIKEIARALQDKFPPGKPPQIKIRNKNGETKTFEPNKTIDDIPMDGVVEIEIEFRPSAGGSA [r15_50_TrROS]	No
SAGGAEEARKAGRPVLLTVTVTAPGSGKVSTLPLLVPADRPVDVEALVAALFPADWAVTVSVSPVGGSAGGS [r8_127_JUSTAS]	Yes
SAGGSAGGSPVLVRVYARDEDGNETPVAEIALPVENDNPEEAAKKAREIAKKLGVKEYRVEIESAGGSAGGS [r12_569_TrMRF]	Yes
SAGGSAGGSNKKKKTIMFTIKLDVPEGTPTAEEIADELKELSPNVEIDNIMFTPNEVYIMIKVSAGGSAGGS [r12_454_TrROS]	Yes
SFSISTETKVVPQDGRLLIEYEFTVPNAPPGDTAALTLSVSHPSGASTSTSQTADPAGTYTAKFVVDIPLTS [r1_161_JUSTAS]	No
SAGGAPVTVREEELPENSKLITIEYPDGLTLEVLEYPDKVLVREWDTATGKELSSRTLTHEELEKLLSAGGS [r8_476_JUSTAS]	Yes
SAGGSAGGMIVLPPGATVDFDPSVARLTVTVKDPNSDKSTTTTYDVPPTATVTSAPGTIVVNVPSAGGSAGG [r6_804_JUSTAS]	No

* * *

assay: folding stability dG unfold from chymotrypsin proteolysis; higher = more stable

sequence-text	folding stability dG unfold / kcal/mol
SAGGIVEEAIKKLFESGIPLSEEEIKEIIEKAIKEENEKKGKKIEKIEIGEIKFNPETGYAPIKIKASAGGS [r16_365_TrMRF]	1.44
SMEIDPGPGVIRLRFEAPLVDPEHPRLLTLRLEPVIEVSPDGTLRVREVRLVGFSPDGELLFERPFTLDLSA [r9_383_TrMRF]	2.28
SAGGSAGGSMADITITVTDPATGATRTFPHSVSLEEILAEHPGPVTVTIETPTSTTTLQVPRESAGGSAGGS [r12_1056_JUSTAS]	0.0731
SAGGSAGGSGIPVEPIPVRNPKGEIVEVIRFPEDFALVVFPSGERALLRGPELSLRDVVFFPLSAGGSAGGS [r12_491_TrMRF]	0.305
SAGGSAGGSAGKPKTVEIEVTNEDGSKYKAKVVEVDEEKGYVLIKITNPDGSEQTILIKLSAGGSAGGSAGG [r11_742_TrROS_Hall]	2.97
SAGGSAGGSAGMVIELPDGRKAIIVKYDKETKRFYVEIVDKKTGEKKIYEFKSLEEALKASAGGSAGGSAGG [r17_300_TrROS_Hall]	2.86
SAGGSAGGSAGGGNSLSSVRVVPVTLRTSEPLEQDGDPRPREFTETTVVRITETVPPGLSAGGSAGGSAGGS [r10_118_JUSTAS]	0.57
SAGGKVEVELEDGKLRVKVFDKNGKLVEEVEVELKPVTIVIPGLSEEELQELKEKFPGAKITILEGQKSAGG [r13_235_TrROS_Hall]	2.87
SAGGSPTIKLEILLPKEMTPEEVEALARELEEAGYEIVSIKVETVKDEDGREWVRVTITLRPKEDLSAGGSA [r2_442_TrROS_Hall]	3.97
SAGGSAGGSMTLVLEVDSVEDALAAVEALLPPGYRVTIEVEERGGRLLVTITIEPAPAPPPEESAGGSAGGS [r12_195_TrROS_Hall]	3.51
SAGGMKPGEKVLVKITLKKEVFKNENGEEVKVEEKEILIELEVDSLEEALEALKKLLPPGAEIEVLPSAGGS [r16_282_TrROS_Hall]	3.1
SAANPKDIVKAEIEIPGKYGAKFTVYTLPDGTVIVPAEVTLIEGDKPVKKPLVLVVDASTGKILAIADASAG [r14_630_TrMRF]	1.68
SAGGMVTTESTKPYLLPNGTKATLTTTTTLYPDGTVVSPTTFTLTFPDGSSTTTTTTTVTTLASGALSAGGS [r16_505_JUSTAS]	0.563
SAGGSASLASLRKVGETVTYTITPDGTLTVTTHTFYRDPVTGELVVESTTTTTPIPPGDAAALAALSAGGSA [r15_207_JUSTAS]	2.37

* * *

assay: folding stability dG unfold from chymotrypsin proteolysis; higher = more stable
// reported folding stability dG unfold per item

sequence-text	unit-abbreviation	folding stability dG unfold
SAGGSAGGSVKVYTIEFLGDGKPYLLSIDDNGNFVIYVPNPKNIDAVKKAIPSNYKIVEIKPLSAGGSAGGS [r12_9_TrMRF]	kcal/mol	2.01
SLSPALEGPEALAALAAADPVPPLPVLTVKNSTGDPEKALEEVLKEHPELKPELIVEVEVGEGTLTITVLSA [r9_723_JUSTAS]	kcal/mol	0.573
SAGGSAGGSAEYRVVVVPPVPTVLIFVKPDRVYVVDLDPATGRATIRPVNVPPNVLPESLLTSAGGSAGGSA [r18_59_TrMRF]	kcal/mol	1.67
SAGGSAGGSAGGAELLPSDVLKFTLTIQPDLKGSPPIIVEVTISVPPEVLEKPEIEVSLSAGGSAGGSAGGS [r10_672_JUSTAS]	kcal/mol	2.87
SGMVTLEDIAAAPPGTPVVVTTKKQGSKNLTFIDAVVDGARSSASYPSIEEARKELEAVGYPVEFVDPAESA [r9_1021_JUSTAS]	kcal/mol	0.143
SAGMPVTVTSTSDPENGSTTVPRTHPTGPVVTVTITKLPPGELRVTVDAGTTVTLYTLPPDALTTFTTPSAG [r5_14_JUSTAS]	kcal/mol	0.13
SAGGGAPNKPVGKETFTVKIGDKWVKVEVTHYATSGTAEVKVTGPNGGPLGTFTVKIDPEKGGVYFGSAGGS [r16_798_TrMRF]	kcal/mol	2.44
SAGGFLENLPDEVVEAALAAVLPDGSRVFVALRKGPDRPRVLIITFDANGVPRDIRELDPEEALKALEASAG [r5_73_TrMRF]	kcal/mol	2.75
SAGGGNKPKIKVLLFFPDRVVELEFESPEEFIRALEEAGFPVIPVSEDSKYLVIEFPDGLRALADFSSAGGS [r8_365_TrMRF]	kcal/mol	2.48
SAGSRILERLREEGLTITKVTSVEKGPGYERIEVETALPDGTTGKVKVTRDPADPDKIEVELEFTPAEVSAG [r5_683_JUSTAS]	kcal/mol	1.71
SAGGSAGGSAKIEVEVTPLPGNKVLKIIKFENGEYIIEVFYFDPETGKIYSESEIISEEELLSAGGSAGGSA [r18_325_TrMRF]	kcal/mol	2.36
SAGGSAGGSGMAVSVSVTPVRLPDGSVRLVISFSSGSTVVLDLPESEWTPEQVEALVAELVSASAGGSAGGS [r12_218_JUSTAS]	kcal/mol	3.9
SAGGSKTITIELTTKDGYKFTITVTEKDDKVTANITFLDPTVTPEKIDETIATLEKLAKEAGKNLTISSAGG [r13_774_TrMRF]	kcal/mol	3.66
SAGGSAGGSAGGEWRTLYIPIPGMPPEFIETFALELLDDGAKVEDIEWNPNNGYLMITVRSAGGSAGGSAGG [r7_906_TrROS]	kcal/mol	2.05
